Biological target: T1, human glycophorin A on human red blood cells or red blood cell membranes (human, UniProt P02724 20-150)
T1 construct: whole, on cells; also called hRBC; human RBC membranes
T1 sequence (looked up): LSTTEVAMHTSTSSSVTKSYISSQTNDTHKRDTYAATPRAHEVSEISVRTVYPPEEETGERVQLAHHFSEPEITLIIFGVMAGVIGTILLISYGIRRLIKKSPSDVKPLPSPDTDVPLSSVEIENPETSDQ
Test: scFv on intact human RBC, unbound scFv by ELISA; 5 min after 200-fold dilution
observation_type: percentage of input scFv antibody bound (%)
State just the number; it will be interpreted in %.

As a guide, the following entries are already answered.
- binder: "TPP-7795 scFv with C-terminal 6xHIS tag (scFv) scFv: DIQLTQSPSFLSASVGDRVTITCRASSSVSYIYWFQQKPGKAPKLLIYATSFLQSGVPSRFSGSGSGTEYTLTISSLQPEDFATYYCHQRNSFPYTFGQGTKLEIKGGGGSGGGGSGGGGSGGGGSEVQLVQSGAEVKKPGASVKVSCKASGYTFTTYTIHWVRQAPGQGLEWMGYINPKSGWTRYNPKFKGRVTMTRDKSTSTAYMELRSLRSDDTAVYYCQTGTRDYWGQGTTVTVSSHHHHHH"
  assay_result: 85
- binder: "TPP-7794 scFv with C-terminal 6xHIS tag (scFv) scFv: DIQLTQSPSFLSASVGDRVTITCRASSSVRYIYWFQQKPGKAPKLLIYATSFRQSGVPSRFSGSGSGTEYTLTISSLQPEDFATYYCHQRNSFPYTFGQGTKLEIKGGGGSGGGGSGGGGSGGGGSEVQLVQSGAEVKKPGASVKVSCKASGYTFTTYAIHWVRQAPGQGLEWMGYINPSSGYTRYNPKFKHRVTMTRDKSTSTAYMELRSLRSDDTAVYYCWTGTRDYWGQGTTVTVSSHHHHHH"
  assay_result: 85
- binder: "TPP-7781 scFv with C-terminal 6xHIS tag (scFv) scFv: DIQLTQSPSFLSASVGDRVTITCRASSSVRYIYWFQQKPGKAPKLLIYATSTLQSGVPSRFSGSGSGTEYTLTISSLQPEDFATYYCHQRNSFPYTFGQGTKLEIKGGGGSGGGGSGGGGSGGGGSEVQLVQSGAEVKKPGASVKVSCKASGYTFTTYTIHWVRQAPGQGLEWMGYINPKSGWTRYNPKFKGRVTMTRDKSTSTAYMELRSLRSDDTAVYYCQTGTRDYWGQGTTVTVSSHHHHHH"
  assay_result: 94

Now let's try a different one.
Ask: Please give the documented percentage of input scFv antibody bound of TPP-7792 scFv with C-terminal 6xHIS tag (scFv) scFv: DIQLTQSPSFLSASVGDRVTITCRASSSVRYIYWFQQKPGKAPKLLIYATSFRQSGVPSRFSGSGSGTEYTLTISSLQPEDFATYYCHQRNSFPYTFGQGTKLEIKGGGGSGGGGSGGGGSGGGGSEVQLVQSGAEVKKPGASVKVSCKASGYTFTTYAIHWVRQAPGQGLEWMGYINPSSGYTRYNPKFKGRVTMTRDKSTSTAYMELRSLRSDDTAVYYCWTGTRDYWGQGTTVTVSSHHHHHH
Reply: 99

Data origin: patent US20190359687A1
